- Experiment Notes: Three-treatment crossover pharmacokinetics of IN nalmefene, three dosing regimens (Example 13)
- Details: human, plasma, other: intranasal (IN spray), 6 mg, AUC0-30 min, mean, Treatment B (T2) 3 mg in each nostril (6 mg)
Measured Attribute: AUC(0-t) (ng·h/mL)
Unit ng·h/mL implied. Number only.

Reported AUC(0-t) ( C=C1CC[C@@]2(O)[C@H]3Cc4ccc(O)c5c4[C@@]2(CCN3CC2CC2)[C@H]1O5 [Nalmefene] ) = 6.46

###

- Experiment Notes: Three-treatment crossover pharmacokinetics of IN nalmefene, three dosing regimens (Example 13)
- Details: human, plasma, other: intranasal (IN spray), 6 mg, […], Median; Time 48.0; T3: 6 mg nalmefene HCl IN, two 0.1 mL sprays in one nostril
Measured Attribute: concentration at 48 h (ng/mL)
Please state the figure in ng/mL; there is no need to write the unit.

Lab note: C=C1CC[C@@]2(O)[C@H]3Cc4ccc(O)c5c4[C@@]2(CCN3CC2CC2)[C@H]1O5 [Nalmefene] gave concentration at 48 h of 0.176
